Consider the following binders and their measured Ki readings.
# Assayed system: T1, rat neurotensin receptor type 1 (rat, UniProt P20789 1-424)
# T1 construct: whole, on cells; Used as membrane homogenates of transfected HEK 293 cells (0.75 ug/well), not intact cells; also called rNTR-1; rNTR1
# T1 sequence (P20789 whole entry): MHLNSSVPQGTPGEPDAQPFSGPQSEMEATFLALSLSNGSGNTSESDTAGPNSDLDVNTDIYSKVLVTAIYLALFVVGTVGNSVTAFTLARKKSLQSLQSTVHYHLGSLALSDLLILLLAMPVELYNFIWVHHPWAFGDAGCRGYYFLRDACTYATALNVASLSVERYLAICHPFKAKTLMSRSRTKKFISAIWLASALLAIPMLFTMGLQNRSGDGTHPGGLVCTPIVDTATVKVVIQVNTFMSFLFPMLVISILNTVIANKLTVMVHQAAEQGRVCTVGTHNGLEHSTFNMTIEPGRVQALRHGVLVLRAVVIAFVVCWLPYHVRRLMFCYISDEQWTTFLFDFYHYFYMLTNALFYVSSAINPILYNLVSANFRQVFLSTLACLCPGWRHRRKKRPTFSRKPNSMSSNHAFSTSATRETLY
# Measurement description: competition with [3H]-neurotensin on membranes of HEK 293 cells expressing rat NTR-1; Ki from mean IC50 by Cheng-Prusoff
Bridge positions count the residues as written; N and C are the ends. Square brackets hold non-standard residues; d marks the D form. * marks the point of attachment. Tle = CC(C)(C)[C@H](N)C(=O)O; Pip = O=C(O)[C@@H]1CCCCN1; Propionyl = CCC(=O)*; Sar = CNCC(=O)O
Give the value in nM but do not write nM after it.

Supply Ki value. Item: Propionyl-[dC]M[Pip]RLR[Sar]CKRPY[Tle]L-OH (disulfide 1-8; SMILES CCC(=O)N[C@@H]1CSSC[C@@H](C(=O)N[C@@H](CCCCN)C(=O)N[C@@H](CCCNC(=N)N)C(=O)N2CCC[C@H]2C(=O)N[C@@H](Cc2ccc(O)cc2)C(=O)N[C@H](C(=O)N[C@@H](CC(C)C)C(=O)O)C(C)(C)C)NC(=O)CN(C)C(=O)[C@H](CCCNC(=N)N)NC(=O)[C@H](CC(C)C)NC(=O)[C@H](CCCNC(=N)N)NC(=O)[C@@H]2CCCCN2C(=O)[C@H](CCSC)NC1=O) [compound XVI, SEQ ID NO: 9-[Lys8, Tle12]NT(8-13)]
0.12

Supply Ki value. Item: Propionyl-[dC]M[Pip]RLR[Sar]CRRPW[Tle]L-OH (disulfide 1-8; SMILES CCC(=O)N[C@@H]1CSSC[C@@H](C(=O)N[C@@H](CCCNC(=N)N)C(=O)N[C@@H](CCCNC(=N)N)C(=O)N2CCC[C@H]2C(=O)N[C@@H](Cc2c[nH]c3ccccc23)C(=O)N[C@H](C(=O)N[C@@H](CC(C)C)C(=O)O)C(C)(C)C)NC(=O)CN(C)C(=O)[C@H](CCCNC(=N)N)NC(=O)[C@H](CC(C)C)NC(=O)[C@H](CCCNC(=N)N)NC(=O)[C@@H]2CCCCN2C(=O)[C@H](CCSC)NC1=O) [compound XVIII, SEQ ID NO: 9-[Trp11, Tle12]NT(8-13)]
0.02
